What EC150 was measured for each of the following?
target.or.test.system: AMPK alpha2/beta2/gamma1 (Homo sapiens) (UniProt P54646+O43741+P54619)
Sequence (O43741 whole entry, looked up): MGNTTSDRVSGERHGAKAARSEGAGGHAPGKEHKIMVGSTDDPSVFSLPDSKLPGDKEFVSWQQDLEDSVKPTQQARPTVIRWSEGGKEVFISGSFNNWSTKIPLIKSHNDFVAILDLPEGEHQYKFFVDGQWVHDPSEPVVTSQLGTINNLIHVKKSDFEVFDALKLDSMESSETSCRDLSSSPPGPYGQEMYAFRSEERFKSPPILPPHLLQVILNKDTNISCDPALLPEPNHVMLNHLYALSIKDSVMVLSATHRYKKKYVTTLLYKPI
Sequence (P54619 whole entry, looked up): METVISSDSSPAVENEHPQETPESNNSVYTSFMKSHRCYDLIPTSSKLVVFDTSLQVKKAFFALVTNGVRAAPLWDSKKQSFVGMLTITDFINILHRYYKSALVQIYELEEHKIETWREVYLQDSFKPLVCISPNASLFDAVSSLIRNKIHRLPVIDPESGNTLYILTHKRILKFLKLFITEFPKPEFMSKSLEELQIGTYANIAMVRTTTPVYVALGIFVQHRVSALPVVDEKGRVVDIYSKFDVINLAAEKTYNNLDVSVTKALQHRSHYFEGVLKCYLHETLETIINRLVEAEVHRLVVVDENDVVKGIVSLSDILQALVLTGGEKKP
Sequence (P54646 whole entry, looked up): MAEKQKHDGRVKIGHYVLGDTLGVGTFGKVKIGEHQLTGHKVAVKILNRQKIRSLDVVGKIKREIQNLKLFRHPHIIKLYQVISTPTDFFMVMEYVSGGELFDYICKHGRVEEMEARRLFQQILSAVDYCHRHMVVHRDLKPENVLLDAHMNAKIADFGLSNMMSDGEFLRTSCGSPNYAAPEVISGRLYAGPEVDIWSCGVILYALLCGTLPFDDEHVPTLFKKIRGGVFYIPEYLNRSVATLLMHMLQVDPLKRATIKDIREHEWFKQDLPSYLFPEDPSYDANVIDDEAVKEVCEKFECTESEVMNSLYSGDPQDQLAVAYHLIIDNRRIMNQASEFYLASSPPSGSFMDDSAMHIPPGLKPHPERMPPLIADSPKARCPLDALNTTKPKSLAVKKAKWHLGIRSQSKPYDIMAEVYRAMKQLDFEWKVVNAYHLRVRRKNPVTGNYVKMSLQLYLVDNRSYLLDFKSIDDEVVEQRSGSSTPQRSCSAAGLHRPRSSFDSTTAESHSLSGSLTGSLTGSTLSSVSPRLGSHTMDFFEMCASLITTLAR
assay.protocol: Activation of human recombinant AMPK A2/B2/G1 assessed as increase in AMPK phosphorylation using FL-peptide as substrate incubated for 120 mins by EZ reader method
Type: protein-complex assay
reported.conditions: filed as activator
Numbers only, in µM.

CC(=O)Nc1cc(F)c2c(c1)CC[C@@H]2Nc1nc2nc(O[C@@H]3CO[C@H]4[C@@H]3OC[C@H]4O)[nH]c2cc1Cl    0.0047
O[C@@H]1CO[C@H]2[C@@H]1OC[C@H]2Oc1nc2nc(NCc3ccccc3)c(Cl)cc2[nH]1    0.16
COCCOc1cc(F)c2c(c1)CC[C@@H]2Nc1nc2nc(O[C@@H]3CO[C@H]4[C@@H]3OC[C@H]4O)[nH]c2cc1Cl    0.0016

Query: Need EC150, item O[C@@H]1CO[C@H]2[C@@H]1OC[C@H]2Oc1nc2nc(N[C@H]3CCc4cccc(F)c43)c(Cl)cc2[nH]1
Response: 0.002
